Target: human Gal3-His (Homo sapiens, UniProt P17931)
Sequence (P17931 whole entry): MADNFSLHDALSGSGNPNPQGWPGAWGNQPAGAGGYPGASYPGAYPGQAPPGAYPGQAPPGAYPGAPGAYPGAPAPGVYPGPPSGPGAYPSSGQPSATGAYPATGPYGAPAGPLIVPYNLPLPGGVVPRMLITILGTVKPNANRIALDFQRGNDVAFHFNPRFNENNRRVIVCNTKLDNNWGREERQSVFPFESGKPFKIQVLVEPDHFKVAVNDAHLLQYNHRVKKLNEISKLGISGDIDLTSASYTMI
Test: Antibody binning by biolayer interferometry (Gator)
Type: binding
Details: antibody competition
measured parameter: Bin

Q: Please report the recorded Bin for 2D10.2B2: murine anti-Gal3 antibody (antibody, V domains shown) VH: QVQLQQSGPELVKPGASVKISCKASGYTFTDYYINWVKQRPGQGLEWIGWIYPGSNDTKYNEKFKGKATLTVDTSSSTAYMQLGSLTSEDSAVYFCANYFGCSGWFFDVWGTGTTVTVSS VL: DIVMTQAAFSNPVTLGTSASISCRSSKSLLHSDGITYLYWYLQRPGQSPQLLIYRMSNLASGVPDRFSGSGSGTDFTLRISRVEAEDVGVYYCAQMIEFPLTFGAGTILELK .
Ans: 3

Reference source: patent US20220380473A1
